- Test system: hES2-derived cardiomyocytes
- test: Wrinkling-based contraction analysis of periodically contracting cardiomyocyte colonies on silicone elastomer film
- Format: cell-based, human
- test settings: live treatment in three concentrations (high, medium, low): ouabain and nifidepine 0.3, 3, 30 μM; isoproterenol and blebbistatin 0.1, 1, 10 μM
measurement type: contraction (beating) frequency

Which contraction (beating) frequency value belongs to CC(C)NCC(O)c1ccc(O)c(O)c1 (stereo not shown) ?
increased

Which contraction (beating) frequency value belongs to COC(=O)C1=C(C)NC(C)=C(C(=O)OC)C1c1ccccc1[N+](=O)[O-] [nifidepine] ?
increased
